Tested on: Human alphaherpesvirus 3
Method summary: cytostatic concentration required to reduce the HEL cell number by 50%. after 5 days in the absence of virus
Format: functional
Reported conditions: Human alphaherpesvirus 3, HEL, 120 h
In this section we review reported CC50 values for a set of compounds.
Assay endpoint: CC50

>>> print(df.to_string())
                                   compound    result
0  Cc1ccc(-c2cc3cn([C@H]4C[C@H](O)[C@@H](CO)O4)c(=O)nc3o2)cc1  > 200 µM
1  Nc1nc2c(ncn2COCCO)c(=O)[nH]1 [ACYCLOVIR]  > 200 µM
2  O=c1nc2oc(-c3ccccc3)cc2cn1[C@H]1C[C@H](O)[C@@H](CO)O1  > 200 µM
3  CCCCCCCCCc1cc2cn([C@H]3C[C@H](O)[C@@H](CO)O3)c(=O)nc2o1  > 200 µM
4  CCCCCCCCc1ccc(-c2cc3cn([C@H]4C[C@H](O)[C@@H](CO)O4)c(=O)nc3o2)cc1  > 200 µM
5  CCCCCCCCc1cc2cn([C@H]3C[C@H](O)[C@@H](CO)O3)c(=O)nc2o1   > 50 µM
6  CCCCCCCCCCc1cc2cn([C@H]3C[C@H](O)[C@@H](CO)O3)c(=O)nc2o1   > 50 µM
